# Target Or Test System: UniProt P35790
pIC50: −log10 of the molar value.
Record satisfied whenever pIC50 is at 5 or higher; record not satisfied when lower.

Cc1c(N)ccc2c(N(C)c3ccc(Cl)cc3)cc[n+](Cc3cccc(-c4cccc(C[n+]5ccc(N(C)c6ccc(Cl)cc6)c6ccc(N)c(C)c65)c4)c3)c12 ... not satisfied
Nc1cc[n+](Cc2cccc(-c3cccc(C[n+]4ccc(N)c5ccccc54)c3)c2)c2ccccc12 ... satisfied
c1ccc2c(c1)c(N1CCCCCC1)cc[n+]2Cc1ccc(CCc2ccc(C[n+]3ccc(N4CCCCCC4)c4ccccc43)cc2)cc1 ... satisfied
Nc1cc[n+](Cc2ccc(CCc3ccc(C[n+]4ccc(N)c5ccccc54)cc3)cc2)c2ccccc12 ... not satisfied
CN(c1ccccc1)c1cc[n+](Cc2cccc(-c3cccc(C[n+]4ccc(N(C)c5ccccc5)c5ccc(Cl)cc54)c3)c2)c2cc(Cl)ccc12 ... satisfied

Reported pIC50 at or above 5? `c1ccc(Nc2cc[n+](Cc3ccc(-c4ccc(C[n+]5ccc(Nc6ccccc6)c6ccccc65)cc4)cc3)c3ccccc23)cc1`
not satisfied

Another compound: `CN(c1ccccc1)c1cc[n+](Cc2ccc(CCc3ccc(C[n+]4ccc(N(C)c5ccccc5)c5ccccc54)cc3)cc2)c2ccccc12`
satisfied

Another compound: `CN(c1ccccc1)c1cc[n+](Cc2ccc(CCc3ccc(C[n+]4ccc(N(C)c5ccccc5)c5ccc(Cl)cc54)cc3)cc2)c2cc(Cl)ccc12`
satisfied

Another compound: `Cc1c(N)ccc2c(N(C)c3ccc(Cl)cc3)cc[n+](Cc3ccc(CCc4ccc(C[n+]5ccc(N(C)c6ccc(Cl)cc6)c6ccc(N)c(C)c65)cc4)cc3)c12`
not satisfied

Another compound: `Nc1cc[n+](Cc2ccc(-c3ccc(C[n+]4ccc(N)c5ccccc54)cc3)cc2)c2ccccc12`
not satisfied

----------
Kindly state log10(IC50) for each of the entries shown.
# Target Or Test System: Choline kinase alpha (Homo sapiens, UniProt P35790)
# Sequence (P35790 whole entry): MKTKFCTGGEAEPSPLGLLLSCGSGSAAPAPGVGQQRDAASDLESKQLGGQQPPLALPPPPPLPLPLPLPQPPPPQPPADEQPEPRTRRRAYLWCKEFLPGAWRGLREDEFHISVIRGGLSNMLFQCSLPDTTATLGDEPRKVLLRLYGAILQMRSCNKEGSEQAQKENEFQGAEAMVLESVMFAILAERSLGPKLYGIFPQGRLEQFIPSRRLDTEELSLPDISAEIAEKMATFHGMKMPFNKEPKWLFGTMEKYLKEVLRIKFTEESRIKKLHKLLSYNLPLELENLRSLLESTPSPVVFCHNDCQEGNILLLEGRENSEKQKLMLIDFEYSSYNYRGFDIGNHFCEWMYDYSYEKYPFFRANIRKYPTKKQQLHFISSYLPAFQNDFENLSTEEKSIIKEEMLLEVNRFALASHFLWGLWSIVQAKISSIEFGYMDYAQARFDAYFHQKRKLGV
In our notation, the value equals log10 of IC50 in µM.

Some molecules with recorded log10(IC50):
Cc1c[n+](Cc2cccc(-c3cccc(C[n+]4cc(C)c(N)c5ccccc54)c3)c2)c2ccccc2c1N ... 1.08
c1ccc2c(c1)c(N1CCCCCC1)cc[n+]2Cc1ccc(-c2ccc(C[n+]3ccc(N4CCCCCC4)c4ccccc43)cc2)cc1 ... 0.34
Cc1c(N)ccc2c(N(C)c3ccc(Cl)cc3)cc[n+](Cc3ccc(-c4ccc(C[n+]5ccc(N(C)c6ccc(Cl)cc6)c6ccc(N)c(C)c65)cc4)cc3)c12 ... 1.66
CN(c1ccccc1)c1cc[n+](Cc2ccc(-c3ccc(C[n+]4ccc(N(C)c5ccccc5)c5ccc(Cl)cc54)cc3)cc2)c2cc(Cl)ccc12 ... 1.06

# evaluate next
Look at this molecule and give its reported log10(IC50). `CN(C)c1cc[n+](Cc2ccc(CCc3ccc(C[n+]4ccc(N(C)C)c5ccc(Cl)cc54)cc3)cc2)c2cc(Cl)ccc12`
0.95
